- MEASURED TARGET: human ETA receptors (Homo sapiens)
- Construct: endogenous in cells; host or cells: TE 671 cells (ATCC HTB 139)
- Sequence (P25101 21-427): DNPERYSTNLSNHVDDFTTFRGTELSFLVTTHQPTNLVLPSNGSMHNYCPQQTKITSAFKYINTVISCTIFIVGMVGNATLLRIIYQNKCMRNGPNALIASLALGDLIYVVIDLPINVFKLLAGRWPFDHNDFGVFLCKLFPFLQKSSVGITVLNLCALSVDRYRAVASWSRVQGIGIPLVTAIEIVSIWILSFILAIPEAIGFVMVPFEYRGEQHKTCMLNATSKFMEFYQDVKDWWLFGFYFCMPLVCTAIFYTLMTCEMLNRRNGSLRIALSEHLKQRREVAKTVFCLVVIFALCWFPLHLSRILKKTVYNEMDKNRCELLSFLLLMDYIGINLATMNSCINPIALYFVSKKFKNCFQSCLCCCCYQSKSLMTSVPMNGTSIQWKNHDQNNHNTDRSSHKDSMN
- PROTOCOL DETAILS: Binding Test #1: inhibition of 125I-ET-1 binding to ETA receptors (TE 671 cell membranes)
- PARTICULARS: Table 2; incubation at 4° C.; read-out: ETA
// IC50 lookup, one value per entry

As a guide, the following entries are already answered.
Q: Identify the measured IC50 of Cc1noc(NS(=O)(=O)c2cccc(-c3ccccc3)c2)c1Br for human ETA receptors (Homo sapiens).
Result: ~30 nM

Q: Provide the documented IC50 with human ETA receptors (Homo sapiens) as the system for Cc1noc(NS(=O)(=O)c2cccc(-c3ccccc3)c2)c1C
Result: > 30 nM

---
Q: Kindly state the measured IC50 obtained for Cc1noc(NS(=O)(=O)c2cccc(-c3ccccc3)c2)c1Cl with human ETA receptors (Homo sapiens).
Result: > 30 nM

====

This listing pairs compounds with measured pIC50.
- MEASURED TARGET: human ETB receptor (Homo sapiens, UniProt P24530)
- Construct: expressed in transfected cells; host or cells: COS7 cells
- Sequence (P24530 27-442): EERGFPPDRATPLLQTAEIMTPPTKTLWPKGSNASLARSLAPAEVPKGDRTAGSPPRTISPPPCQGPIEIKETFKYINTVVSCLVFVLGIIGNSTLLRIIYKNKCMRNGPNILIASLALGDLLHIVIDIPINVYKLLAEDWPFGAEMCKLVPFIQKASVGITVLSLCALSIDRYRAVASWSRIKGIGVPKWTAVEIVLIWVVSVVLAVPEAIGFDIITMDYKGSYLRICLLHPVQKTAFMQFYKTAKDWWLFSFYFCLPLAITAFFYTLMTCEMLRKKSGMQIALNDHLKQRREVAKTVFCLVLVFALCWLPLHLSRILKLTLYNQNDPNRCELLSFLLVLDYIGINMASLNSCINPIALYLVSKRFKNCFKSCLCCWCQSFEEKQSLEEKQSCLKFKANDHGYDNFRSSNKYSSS
- PROTOCOL DETAILS: Binding Test #2: inhibition of 125I-ET-1 binding to ETB receptors (transfected COS7 cell membranes)
- PARTICULARS: Table 1; incubation at 4° C.; read-out: ETB
pIC50: −log10 of the molar value.

Q: Tell me reported pIC50 for Cc1noc(NS(=O)(=O)c2cc(Cl)c(Cl)s2)c1Br , tested with human ETB receptor (Homo sapiens, UniProt P24530).
Result: ~5.31

Others:
Q: Provide value of pIC50 for this record tested with human ETB receptor (Homo sapiens, UniProt P24530): Cc1noc(NS(=O)(=O)c2ccc(-c3cc(C(F)(F)F)n(C)n3)s2)c1Br
Result: ~6.44

Q: Find pIC50 (human ETB receptor (Homo sapiens, UniProt P24530)) for the entry CCCCc1sc2ccccc2c1S(=O)(=O)Nc1onc(C)c1Br
Result: ~5.52

====

- MEASURED TARGET: human ETA receptors (Homo sapiens, UniProt P25101)
- Construct: endogenous in cells; host or cells: TE 671 cells (ATCC HTB 139)
- PROTOCOL DETAILS: Binding Test #1: inhibition of 125I-ET-1 binding to ETA receptors (TE 671 cell membranes)
- PARTICULARS: Table 1; † incubation at 24° C.; read-out: ETA
- Excerpt: Compounds that are potential endothelin antagonists are identified by testing their ability to compete with ^125I-labeled ET-1 for binding to human ETA receptors or ETB receptors present on isolated cell membranes. The effectiveness of the test compound as an antagonist or agonist of the biological tissue response of endothelin can also be assessed by measuring the effect on endothelin induced contraction of isolated rat thoracic aortic rings. […]
QUANTITY NAME: IC50

Q: # query: IC50 of entry Cc1cc2c(cc1CCc1ccsc1S(=O)(=O)Nc1onc(C)c1Br)OCO2
Result: ~100 nM

Q: Param item = Cc1noc(NS(=O)(=O)c2ccc(COCc3ccccc3)s2)c1Br ; retrieve measured IC50.
Result: 12000 nM

Q: Dear colleague, I am looking for the recorded IC50 of the following compound: COc1ccc2c(S(=O)(=O)Nc3onc(C)c3Cl)c(Cc3ccc4c(c3)OCO4)sc2c1
Result: ~2000 nM

Q: # IC50 lookup, item CCCc1cc2c(cc1OCc1ccsc1S(=O)(=O)Nc1onc(C)c1Br)OCO2
Result: ~200 nM

Origin of values: patent US6683103B2
